Target: UniProt:Q12809
Sequence (Q12809 whole entry): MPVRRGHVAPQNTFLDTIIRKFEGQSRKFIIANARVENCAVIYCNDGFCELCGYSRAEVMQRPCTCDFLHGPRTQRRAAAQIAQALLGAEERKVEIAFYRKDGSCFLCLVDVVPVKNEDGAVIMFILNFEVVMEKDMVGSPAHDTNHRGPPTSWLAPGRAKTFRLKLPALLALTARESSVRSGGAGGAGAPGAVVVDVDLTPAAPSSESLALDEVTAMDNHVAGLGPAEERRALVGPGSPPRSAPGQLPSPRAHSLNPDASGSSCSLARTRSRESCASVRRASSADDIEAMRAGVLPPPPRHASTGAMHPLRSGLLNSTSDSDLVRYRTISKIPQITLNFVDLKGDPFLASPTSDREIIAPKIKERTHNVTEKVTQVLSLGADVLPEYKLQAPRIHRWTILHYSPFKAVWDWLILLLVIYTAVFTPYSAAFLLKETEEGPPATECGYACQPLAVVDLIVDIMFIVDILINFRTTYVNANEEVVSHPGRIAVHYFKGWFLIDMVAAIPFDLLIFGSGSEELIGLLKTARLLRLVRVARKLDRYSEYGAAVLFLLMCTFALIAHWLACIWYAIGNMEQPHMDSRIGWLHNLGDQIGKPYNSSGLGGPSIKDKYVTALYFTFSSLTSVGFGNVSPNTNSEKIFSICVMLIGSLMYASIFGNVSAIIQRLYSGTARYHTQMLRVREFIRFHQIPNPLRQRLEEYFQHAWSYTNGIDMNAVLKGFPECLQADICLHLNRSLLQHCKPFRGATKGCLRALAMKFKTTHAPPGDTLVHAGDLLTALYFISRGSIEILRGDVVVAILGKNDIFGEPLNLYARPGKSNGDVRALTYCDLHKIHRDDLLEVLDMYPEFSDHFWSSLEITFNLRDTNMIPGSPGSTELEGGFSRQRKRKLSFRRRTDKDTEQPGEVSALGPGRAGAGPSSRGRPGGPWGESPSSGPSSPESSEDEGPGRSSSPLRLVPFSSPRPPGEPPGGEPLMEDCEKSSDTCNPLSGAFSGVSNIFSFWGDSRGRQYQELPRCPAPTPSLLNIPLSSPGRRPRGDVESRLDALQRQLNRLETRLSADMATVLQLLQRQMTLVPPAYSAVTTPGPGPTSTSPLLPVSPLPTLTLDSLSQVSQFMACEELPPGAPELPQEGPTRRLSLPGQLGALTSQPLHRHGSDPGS
Test: Displacement of labeled dofetilide from human ERG
quantity-kind: inhibition (INH) (%)
Reply with just the number (in %).

Answered cases to consult:
structure-smiles-string	unit-name	inhibition (INH)
CC(C)(C)c1cc(C(=O)NCCO)c(NC(=O)Nc2ccc3[nH]ncc3c2)s1	%	0
CN(C)CCNC(=O)c1cc(C(C)(C)C)sc1NC(=O)Nc1ccc2[nH]ncc2c1	%	28
COCCNC(=O)c1cc(C(C)(C)C)sc1NC(=O)Nc1ccc2[nH]ncc2c1	%	0
CC(C)(C)c1ccc(NC(=O)Nc2ccc3[nH]ncc3c2)s1	%	0
CC(C)(C)c1cc(C(=O)O)c(NC(=O)Nc2ccc3[nH]ncc3c2)s1	%	0

Read the next record carefully.
Can you share its inhibition (INH)? I mean this compound: `CC(C)(C)c1cc(C(=O)NC2CC2)c(NC(=O)Nc2ccc3[nH]ncc3c2)s1`
0

---

# reported half-life at 1 µM; entries follow
Assay: Half life in human liver microsomes at 1 uM by LC/MS/MS analysis
Type: ADME, Microsome

Reference set (5 entries):
structure-smiles-string	half-life at 1 µM
CC(C)(C)c1cc(C(=O)NCCO)c(NC(=O)Nc2ccc3[nH]ncc3c2)s1	> 2 h
CC(C)(C)c1cc(C(=O)O)c(NC(=O)Nc2ccc3[nH]ncc3c2)s1	> 2 h
COCCNC(=O)c1cc(C(C)(C)C)sc1NC(=O)Nc1ccc2[nH]ncc2c1	> 2 h
CN(C)CCNC(=O)c1cc(C(C)(C)C)sc1NC(=O)Nc1ccc2[nH]ncc2c1	0.633 h
CC(C)(C)c1cc(C(=O)NC2CC2)c(NC(=O)Nc2ccc3[nH]ncc3c2)s1	> 2 h

Proceed to the following item.
Look up half-life at 1 µM for this molecule: `CC(C)(C)c1ccc(NC(=O)Nc2ccc3[nH]ncc3c2)s1`
0.917 h

---

Catalogue of log10(solubility kinetic) values
Experiment: Kinetic solubility of the compound in 50 mM phosphate buffer at pH 6.5
Format: physicochemical
Kindly note that the scale is log10 and the underlying solubility kinetic is in µg/mL.

Consider the worked cases shown below.
structure-smiles-string	log10(solubility kinetic)
CC(C)(C)c1cc(C(=O)O)c(NC(=O)Nc2ccc3[nH]ncc3c2)s1	2.16
COCCNC(=O)c1cc(C(C)(C)C)sc1NC(=O)Nc1ccc2[nH]ncc2c1	1.00
CC(C)(C)c1cc(C(=O)NCCO)c(NC(=O)Nc2ccc3[nH]ncc3c2)s1	1.61
CC(C)(C)c1ccc(NC(=O)Nc2ccc3[nH]ncc3c2)s1	0.85
CN(C)CCNC(=O)c1cc(C(C)(C)C)sc1NC(=O)Nc1ccc2[nH]ncc2c1	2.23

Now, please, on to the next molecule.
Recorded log10(solubility kinetic) for `CC(C)(C)c1cc(C(=O)NC2CC2)c(NC(=O)Nc2ccc3[nH]ncc3c2)s1` , please?
1.00

---

Target: CYP1A2 (Homo sapiens)
Sequence (P05177 whole entry): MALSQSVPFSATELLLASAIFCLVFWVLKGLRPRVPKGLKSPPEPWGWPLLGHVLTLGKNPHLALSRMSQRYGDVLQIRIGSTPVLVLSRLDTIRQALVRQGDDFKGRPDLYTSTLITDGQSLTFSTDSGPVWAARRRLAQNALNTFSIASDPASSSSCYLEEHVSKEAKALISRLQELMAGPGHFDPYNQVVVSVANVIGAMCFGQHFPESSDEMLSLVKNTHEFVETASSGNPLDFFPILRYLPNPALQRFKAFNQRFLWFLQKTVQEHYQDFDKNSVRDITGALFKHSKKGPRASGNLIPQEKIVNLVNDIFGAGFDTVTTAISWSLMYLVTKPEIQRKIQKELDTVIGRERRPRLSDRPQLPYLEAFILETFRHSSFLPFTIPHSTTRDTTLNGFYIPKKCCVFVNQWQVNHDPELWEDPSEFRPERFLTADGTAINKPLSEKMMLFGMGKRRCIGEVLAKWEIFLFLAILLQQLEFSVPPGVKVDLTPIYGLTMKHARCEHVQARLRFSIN
Assay: Inhibition of CYP1A2 at 3 uM by LC/MS/MS analysis
Assay type: ADME
Classification field: enter 1.0 for inhibition at 3 µM values not below 20%, 0.0 for values below it.

structure-smiles-string	target-system	class-assignment
CN(C)CCNC(=O)c1cc(C(C)(C)C)sc1NC(=O)Nc1ccc2[nH]ncc2c1	CYP1A2 (Homo sapiens)	0.0
CC(C)(C)c1cc(C(=O)NC2CC2)c(NC(=O)Nc2ccc3[nH]ncc3c2)s1	CYP1A2 (Homo sapiens)	1.0
CC(C)(C)c1cc(C(=O)NCCO)c(NC(=O)Nc2ccc3[nH]ncc3c2)s1	CYP1A2 (Homo sapiens)	1.0
COCCNC(=O)c1cc(C(C)(C)C)sc1NC(=O)Nc1ccc2[nH]ncc2c1	CYP1A2 (Homo sapiens)	1.0
CC(C)(C)c1cc(C(=O)O)c(NC(=O)Nc2ccc3[nH]ncc3c2)s1	CYP1A2 (Homo sapiens)	0.0

Please find the next compound below.
Could you tell me if the measured inhibition at 3 µM of `CC(C)(C)c1ccc(NC(=O)Nc2ccc3[nH]ncc3c2)s1` reaches 20% or more?
1.0

---

Target: CYP2C9 (Homo sapiens)
Sequence (P11712 whole entry): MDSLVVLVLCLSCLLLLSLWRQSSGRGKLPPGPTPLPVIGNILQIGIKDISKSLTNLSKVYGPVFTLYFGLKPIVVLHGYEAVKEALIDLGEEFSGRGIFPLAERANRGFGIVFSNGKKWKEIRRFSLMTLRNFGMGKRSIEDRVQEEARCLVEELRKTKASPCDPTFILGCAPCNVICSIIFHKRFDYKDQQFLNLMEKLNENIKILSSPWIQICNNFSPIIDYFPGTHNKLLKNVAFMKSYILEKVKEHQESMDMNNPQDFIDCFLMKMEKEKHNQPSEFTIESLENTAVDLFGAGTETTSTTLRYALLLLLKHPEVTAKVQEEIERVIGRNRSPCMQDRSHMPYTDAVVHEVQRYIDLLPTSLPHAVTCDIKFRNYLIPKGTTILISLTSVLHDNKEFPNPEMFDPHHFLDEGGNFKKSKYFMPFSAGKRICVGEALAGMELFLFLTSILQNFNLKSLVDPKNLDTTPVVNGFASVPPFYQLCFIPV
Assay: Inhibition of CYP2C9 at 3 uM by LC/MS/MS analysis
Assay type: ADME
Assign met whenever inhibition at 3 µM does not fall below 10%; assign not met whenever it does.

structure-smiles-string	class-assignment
COCCNC(=O)c1cc(C(C)(C)C)sc1NC(=O)Nc1ccc2[nH]ncc2c1	met
CC(C)(C)c1cc(C(=O)O)c(NC(=O)Nc2ccc3[nH]ncc3c2)s1	met
CC(C)(C)c1cc(C(=O)NCCO)c(NC(=O)Nc2ccc3[nH]ncc3c2)s1	met
CN(C)CCNC(=O)c1cc(C(C)(C)C)sc1NC(=O)Nc1ccc2[nH]ncc2c1	not met
CC(C)(C)c1ccc(NC(=O)Nc2ccc3[nH]ncc3c2)s1	met

Is the recorded value of inhibition at 3 µM equal to or greater than 10% for this molecule? `CC(C)(C)c1cc(C(=O)NC2CC2)c(NC(=O)Nc2ccc3[nH]ncc3c2)s1`
met

---

Biological target: UniProt:P23443
Experiment: Inhibition of S6K1
// reported IC50 for each item listed
Please respond with the number in nM and leave the unit unwritten.

Check out these entries, answers already filled in.
structure-smiles-string	IC50 / nM
CC(C)(C)c1cc(C(=O)NCCO)c(NC(=O)Nc2ccc3[nH]ncc3c2)s1	19
CN(C)CCNC(=O)c1cc(-c2ccccc2)sc1NC(=O)Nc1ccc2[nH]ncc2c1	1900

Quick check: IC50 of `CN(C)CCNC(=O)c1cc(C(C)(C)C)sc1NC(=O)Nc1ccc2[nH]ncc2c1` ?
15

---

Target: Ribosomal protein S6 kinase beta-1 (Homo sapiens, UniProt P23443)
Sequence (P23443 whole entry): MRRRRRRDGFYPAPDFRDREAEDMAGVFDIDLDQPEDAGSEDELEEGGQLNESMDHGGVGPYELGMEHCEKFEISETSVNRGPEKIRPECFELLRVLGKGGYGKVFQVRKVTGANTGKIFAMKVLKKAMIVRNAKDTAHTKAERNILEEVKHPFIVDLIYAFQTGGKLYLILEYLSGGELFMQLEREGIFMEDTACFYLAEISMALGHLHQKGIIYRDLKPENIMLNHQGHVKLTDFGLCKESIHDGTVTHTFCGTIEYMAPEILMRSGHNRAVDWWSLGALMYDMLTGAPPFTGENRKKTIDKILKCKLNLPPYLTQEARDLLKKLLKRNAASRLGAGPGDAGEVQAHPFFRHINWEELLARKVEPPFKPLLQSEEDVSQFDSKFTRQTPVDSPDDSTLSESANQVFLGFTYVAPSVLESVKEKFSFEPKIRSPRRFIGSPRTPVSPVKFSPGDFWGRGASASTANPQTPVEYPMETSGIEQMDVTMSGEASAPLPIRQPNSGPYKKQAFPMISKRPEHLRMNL
Test: Inhibition of S6K1
pIC50: −log10 of the molar value.
# binarize pIC50: threshold 7 inclusive, high side met, low side not met

Worked cases, answers included:
structure-smiles-string	class-assignment
CC(C)(C)c1cc(C(=O)NCc2ccccc2F)c(NC(=O)Nc2ccc3[nH]ncc3c2)s1	not met
CC(C)(C)c1cc(C(=O)NCc2ccccc2)c(NC(=O)Nc2ccc3[nH]ncc3c2)s1	not met

Has `CC(C)(C)c1cc(C(=O)N2CCS(=O)(=O)CC2)c(NC(=O)Nc2ccc(Oc3cccnc3)cc2)s1` a recorded pIC50 greater than or equal to 7?
not met

Quick check: does `CC(C)(C)c1cc(C(=O)O)c(NC(=O)Nc2ccc3[nH]ncc3c2)s1` have pIC50 greater than or equal to 7?
met

Assess whether reported pIC50 for `COc1ccccc1Oc1ccc(NC(=O)Nc2sc(C(C)(C)C)cc2C(=O)N2CCS(=O)(=O)CC2)cc1` sits at 7 or higher.
not met

Is pIC50 at least 7? Consider `CC(C)(C)c1cc(C(=O)N2CCS(=O)(=O)CC2)c(NC(=O)Nc2ccc3[nH]ncc3c2)s1`
met

pIC50 >= 7 for `CC(C)(C)c1cc(C(=O)N2CCS(=O)(=O)CC2)c(NC(=O)Nc2ccc3oc4cccnc4c3c2)s1` ?
not met

Hello, I need to know if `CC(C)(C)c1cc(C(=O)N2CCS(=O)(=O)CC2)c(NC(=O)Nc2ccc(Oc3ccccc3)cc2)s1` has measured pIC50 not below 7. Thanks!
not met

---

In this section, each of the molecules is paired with its reported inhibition at 3 µM.
Molecular target: CYP3A4 (Homo sapiens)
Sequence (P08684 whole entry): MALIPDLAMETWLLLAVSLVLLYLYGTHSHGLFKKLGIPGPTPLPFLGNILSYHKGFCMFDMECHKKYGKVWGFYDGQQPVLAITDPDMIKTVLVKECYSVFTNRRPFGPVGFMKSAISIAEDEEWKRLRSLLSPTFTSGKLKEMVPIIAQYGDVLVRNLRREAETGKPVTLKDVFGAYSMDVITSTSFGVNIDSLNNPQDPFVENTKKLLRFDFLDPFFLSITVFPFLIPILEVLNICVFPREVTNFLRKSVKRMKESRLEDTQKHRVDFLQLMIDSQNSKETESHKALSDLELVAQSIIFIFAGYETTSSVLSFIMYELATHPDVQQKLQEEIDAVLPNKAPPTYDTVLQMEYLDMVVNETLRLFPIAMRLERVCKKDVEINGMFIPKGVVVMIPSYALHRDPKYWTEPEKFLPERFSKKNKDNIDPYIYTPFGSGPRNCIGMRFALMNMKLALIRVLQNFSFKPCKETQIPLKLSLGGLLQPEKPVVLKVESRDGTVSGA
Test: Inhibition of CYP3A4 at 3 uM by LC/MS/MS analysis
Type: ADME
Just so you know, I need the unit written after the number.

Record request: inhibition at 3 µM value, item `CN(C)CCNC(=O)c1cc(C(C)(C)C)sc1NC(=O)Nc1ccc2[nH]ncc2c1`
0%

What value of inhibition at 3 µM has been reported for the following molecule? `CC(C)(C)c1ccc(NC(=O)Nc2ccc3[nH]ncc3c2)s1`
4%

Param item = `COCCNC(=O)c1cc(C(C)(C)C)sc1NC(=O)Nc1ccc2[nH]ncc2c1` ; retrieve measured inhibition at 3 µM.
2%

For `CC(C)(C)c1cc(C(=O)NCCO)c(NC(=O)Nc2ccc3[nH]ncc3c2)s1` , what is its reported inhibition at 3 µM?
0%

Suppose we examine the molecule `CC(C)(C)c1cc(C(=O)O)c(NC(=O)Nc2ccc3[nH]ncc3c2)s1` ; what inhibition at 3 µM value has been reported?
0%

Which inhibition at 3 µM reading was recorded for the molecule `CC(C)(C)c1cc(C(=O)NC2CC2)c(NC(=O)Nc2ccc3[nH]ncc3c2)s1` ?
11%
